assay text: APR_HepG2_MitoMass_24hr: Apredica 24-hour HepG2 Assay for Mitochondrial Mass (AID 2282912)
setup conditions: high-content imaging, actives raise or lower the signal
Calls of active or inactive are those of the source. How the source made its calls: active means hit-call score of the fitted dose curve at least 0.9, where 1 is the maximum; inactive means score below 0.9.
Classes to choose from: active, inactive

O=C(O)c1cccnc1 :: inactive

Lookup: So what was the verdict on `C/C=C/c1ccc(OC)cc1` in this test?
Found: inactive

Lookup: So what was the verdict on `O=C(NS(=O)(=O)/C=C/c1cccs1)c1ccc(F)cc1Br` in this test?
Found: inactive

Lookup: So what was the verdict on `CC(=O)OCC(COC(C)=O)OC(C)=O` in this test?
Found: inactive

Lookup: So what was the verdict on `Cn1cnc2c1c(=O)[nH]c(=O)n2C` in this test?
Found: inactive

Lookup: So what was the verdict on `CCc1cc(C2=C(C(=O)O)N(c3ccccc3C(F)(F)F)S(=O)(=O)c3ccccc32)cc2c1OCO2` in this test?
Found: inactive
